Data origin, for the record: paper PMC12135066

# method.notes: Biodistribution studies in HEK-uPAR xenograft-bearing nude mice
# test.parameters: female, CD1/nude, mouse, salivary glands, 5 MBq (0.5 nmol), total radioactivity, 4 h p.i.; 5 MBq, 0.5 nmol; decay-corrected; average ± SD, n=3 animals
quantity.kind: tissue uptake at 4 h (%ID/g)
Give bare numbers, in %ID/g.

Would you mind telling me what tissue uptake at 4 h value was observed for CC(C)C[C@H](NC(=O)[C@H](Cc1ccc(O)cc1)NC(=O)[C@@H](CCCNC(=N)N)NC(=O)[C@@H](CO)NC(=O)[C@H](Cc1ccccc1)NC(=O)[C@H](CC1CCCCC1)NC(=O)[C@H](CC(=O)O)NC(=O)CCOCCOCCOCCOCCNC(=O)[C@H](CCCCNC(=O)CCCc1ccc(I)cc1)NC(=O)CN1CCN(CC(=O)O)CCN(CC(=O)O)CCN(CC(=O)O)CC1)C(=O)N[C@@H](Cc1c[nH]c2ccccc12)C(=O)N[C@@H](CO)C(N)=O [[^177Lu]Lu-uPAR-05, metal not drawn] ?
2.5

* * *

Assign tissue uptake at 4 h to each entry below.
# method.notes: in vivo
# test.parameters: female, CD1/nude, mouse, 5 MBq (0.5 nmol), total radioactivity, Heart
Answers are plain numbers, in %ID/g.

CC(C)C[C@H](NC(=O)[C@H](Cc1ccc(O)cc1)NC(=O)[C@@H](CCCNC(=N)N)NC(=O)[C@@H](CO)NC(=O)[C@H](Cc1ccccc1)NC(=O)[C@H](CC1CCCCC1)NC(=O)[C@H](CC(=O)O)NC(=O)[C@H](CCCCNC(=O)CCOCCOCCOCCOCCNC(=O)c1ccc(CNC(=O)CCCc2ccc(I)cc2)cc1)NC(=O)CN1CCN(CC(=O)O)CCN(CC(=O)O)CCN(CC(=O)O)CC1)C(=O)N[C@@H](Cc1c[nH]c2ccccc12)C(=O)N[C@@H](CO)C(N)=O [[^177Lu]Lu-uPAR-03, metal not drawn] ... 4.8

Then this compound:
Would you mind telling me what tissue uptake at 4 h value was observed for CC(C)C[C@H](NC(=O)[C@H](Cc1ccc(O)cc1)NC(=O)[C@@H](CCCNC(=N)N)NC(=O)[C@@H](CO)NC(=O)[C@H](Cc1ccccc1)NC(=O)[C@H](CC1CCCCC1)NC(=O)[C@H](CC(=O)O)NC(=O)[C@H](CCCCNC(=O)CCOCCOCCOCCOCCNC(=O)CCCc1ccc(I)cc1)NC(=O)CN1CCN(CC(=O)O)CCN(CC(=O)O)CCN(CC(=O)O)CC1)C(=O)N[C@@H](Cc1c[nH]c2ccccc12)C(=O)N[C@@H](CO)C(N)=O [[^177Lu]Lu-uPAR-02, metal not drawn] ?
4.8

* * *

Assign tissue uptake at 24 h to each entry below.
# method.notes: in vivo
# test.parameters: female, CD1/nude, mouse, 5 MBq (0.5 nmol), total radioactivity, Spleen
Give bare numbers, in %ID/g.

CC(C)C[C@H](NC(=O)[C@H](Cc1ccc(O)cc1)NC(=O)[C@@H](CCCNC(=N)N)NC(=O)[C@@H](CO)NC(=O)[C@H](Cc1ccccc1)NC(=O)[C@H](CC1CCCCC1)NC(=O)[C@H](CC(=O)O)NC(=O)[C@H](CCCCNC(=O)CCOCCOCCOCCOCCNC(=O)CCCc1ccc(I)cc1)NC(=O)CN1CCN(CC(=O)O)CCN(CC(=O)O)CCN(CC(=O)O)CC1)C(=O)N[C@@H](Cc1c[nH]c2ccccc12)C(=O)N[C@@H](CO)C(N)=O [[^177Lu]Lu-uPAR-02, metal not drawn] ... 2

Then this molecule:
Would you mind telling me what tissue uptake at 24 h value was observed for CC(C)C[C@H](NC(=O)[C@H](Cc1ccc(O)cc1)NC(=O)[C@@H](CCCNC(=N)N)NC(=O)[C@@H](CO)NC(=O)[C@H](Cc1ccccc1)NC(=O)[C@H](CC1CCCCC1)NC(=O)[C@H](CC(=O)O)NC(=O)[C@H](CCCCNC(=O)CCOCCOCCOCCOCCNC(=O)c1ccc(CNC(=O)CCCc2ccc(I)cc2)cc1)NC(=O)CN1CCN(CC(=O)O)CCN(CC(=O)O)CCN(CC(=O)O)CC1)C(=O)N[C@@H](Cc1c[nH]c2ccccc12)C(=O)N[C@@H](CO)C(N)=O [[^177Lu]Lu-uPAR-03, metal not drawn] ?
3

* * *

# method.notes: Biodistribution studies in HEK-uPAR xenograft-bearing nude mice
# test.parameters: female, CD1/nude, mouse, stomach, 5 MBq (0.5 nmol), total radioactivity, 24 h p.i.; 5 MBq, 0.5 nmol; decay-corrected; average ± SD, n=3 animals
quantity.kind: tissue uptake at 24 h

CC(C)C[C@H](NC(=O)[C@H](Cc1ccc(O)cc1)NC(=O)[C@@H](CCCNC(=N)N)NC(=O)[C@@H](CO)NC(=O)[C@H](Cc1ccccc1)NC(=O)[C@H](CC1CCCCC1)NC(=O)[C@H](CC(=O)O)NC(=O)[C@H](CCCCNC(=O)CCCc1ccc(I)cc1)NC(=O)CN1CCN(CC(=O)O)CCN(CC(=O)O)CCN(CC(=O)O)CC1)C(=O)N[C@@H](Cc1c[nH]c2ccccc12)C(=O)N[C@@H](CO)C(N)=O [[^177Lu]Lu-uPAR-01, metal not drawn] ... 0.78 %ID/g
CC(C)C[C@H](NC(=O)[C@H](Cc1ccc(O)cc1)NC(=O)[C@@H](CCCNC(=N)N)NC(=O)[C@@H](CO)NC(=O)[C@H](Cc1ccccc1)NC(=O)[C@H](CC1CCCCC1)NC(=O)[C@H](CC(=O)O)NC(=O)[C@H](CCCCNC(=O)CCCc1ccc(I)cc1)NC(=O)[C@@H](N)CCCCNC(=O)CN1CCN(CC(=O)O)CCN(CC(=O)O)CCN(CC(=O)O)CC1)C(=O)N[C@@H](Cc1c[nH]c2ccccc12)C(=O)N[C@@H](CO)C(N)=O [[^177Lu]Lu-uPAR-04, metal not drawn] ... 1 %ID/g
CC(C)C[C@H](NC(=O)[C@H](Cc1ccc(O)cc1)NC(=O)[C@@H](CCCNC(=N)N)NC(=O)[C@@H](CO)NC(=O)[C@H](Cc1ccccc1)NC(=O)[C@H](CC1CCCCC1)NC(=O)[C@H](CC(=O)O)NC(=O)CN1CCN(CC(=O)O)CCN(CC(=O)O)CCN(CC(=O)O)CC1)C(=O)N[C@@H](Cc1c[nH]c2ccccc12)C(=O)N[C@@H](CO)C(N)=O [[^177Lu]Lu-DOTA-AE105, metal not drawn, reference compound] ... 0.17 %ID/g

Then this molecule:
Would you mind telling me what tissue uptake at 24 h value was observed for CC(C)C[C@H](NC(=O)[C@H](Cc1ccc(O)cc1)NC(=O)[C@@H](CCCNC(=N)N)NC(=O)[C@@H](CO)NC(=O)[C@H](Cc1ccccc1)NC(=O)[C@H](CC1CCCCC1)NC(=O)[C@H](CC(=O)O)NC(=O)CCOCCOCCOCCOCCNC(=O)[C@H](CCCCNC(=O)CCCc1ccc(I)cc1)NC(=O)CN1CCN(CC(=O)O)CCN(CC(=O)O)CCN(CC(=O)O)CC1)C(=O)N[C@@H](Cc1c[nH]c2ccccc12)C(=O)N[C@@H](CO)C(N)=O [[^177Lu]Lu-uPAR-05, metal not drawn] ?
0.64 %ID/g

* * *

# method.notes: Biodistribution studies in HEK-uPAR xenograft-bearing nude mice
# test.parameters: female, CD1/nude, mouse, stomach, 5 MBq (0.5 nmol), total radioactivity, 4 h p.i.; 5 MBq, 0.5 nmol; decay-corrected; average ± SD, n=3 animals
quantity.kind: tissue uptake at 4 h (%ID/g)
Give bare numbers, in %ID/g.

Consider the following illustrative entries.
CC(C)C[C@H](NC(=O)[C@H](Cc1ccc(O)cc1)NC(=O)[C@@H](CCCNC(=N)N)NC(=O)[C@@H](CO)NC(=O)[C@H](Cc1ccccc1)NC(=O)[C@H](CC1CCCCC1)NC(=O)[C@H](CC(=O)O)NC(=O)CN1CCN(CC(=O)O)CCN(CC(=O)O)CCN(CC(=O)O)CC1)C(=O)N[C@@H](Cc1c[nH]c2ccccc12)C(=O)N[C@@H](CO)C(N)=O [[^177Lu]Lu-DOTA-AE105, metal not drawn, reference compound] ... 0.15
CC(C)C[C@H](NC(=O)[C@H](Cc1ccc(O)cc1)NC(=O)[C@@H](CCCNC(=N)N)NC(=O)[C@@H](CO)NC(=O)[C@H](Cc1ccccc1)NC(=O)[C@H](CC1CCCCC1)NC(=O)[C@H](CC(=O)O)NC(=O)[C@H](CCCCNC(=O)CCCc1ccc(I)cc1)NC(=O)CN1CCN(CC(=O)O)CCN(CC(=O)O)CCN(CC(=O)O)CC1)C(=O)N[C@@H](Cc1c[nH]c2ccccc12)C(=O)N[C@@H](CO)C(N)=O [[^177Lu]Lu-uPAR-01, metal not drawn] ... 2

Then this molecule:
Would you mind telling me what tissue uptake at 4 h value was observed for CC(C)C[C@H](NC(=O)[C@H](Cc1ccc(O)cc1)NC(=O)[C@@H](CCCNC(=N)N)NC(=O)[C@@H](CO)NC(=O)[C@H](Cc1ccccc1)NC(=O)[C@H](CC1CCCCC1)NC(=O)[C@H](CC(=O)O)NC(=O)CCOCCOCCOCCOCCNC(=O)[C@H](CCCCNC(=O)CCCc1ccc(I)cc1)NC(=O)CN1CCN(CC(=O)O)CCN(CC(=O)O)CCN(CC(=O)O)CC1)C(=O)N[C@@H](Cc1c[nH]c2ccccc12)C(=O)N[C@@H](CO)C(N)=O [[^177Lu]Lu-uPAR-05, metal not drawn] ?
1.3
